TESTED_TARGET: T1, A. tumefaciens ClpS2 (A. tumefaciens, UniProt Q8UD95 1-103, 35S-labeled in the peptide blots only)
T1 sequence (looked up): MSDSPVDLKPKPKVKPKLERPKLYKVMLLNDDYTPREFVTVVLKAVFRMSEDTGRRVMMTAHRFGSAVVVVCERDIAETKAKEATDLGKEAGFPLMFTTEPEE
PROCEDURE_TEXT: fluorescence polarisation
pKd: −log10 of the molar value. Ends that are not written are not given here.
QUANTITY_MEASURED: pKd

Lookup: # input binder: LRFVQELASKEVC(fluorescein‑5‑maleimide) [LRFVQELASKEVC-fluorescein peptide] ; wanted: its pKd
Found: < 3.10
